# System: A-549 lung carcinoma cells
# Experimental Details: CellTiter-Glo luminescent cell viability (cytotoxicity) assay on lung cancer cells
# Type: cell-based, human
# Condition Summary: Homo sapiens, A549; Lung cancer cells (A-549); 10 µM; 24 h; vs DMSO vehicle
Reported Endpoint: viability at 10 µM (%)
// units = %; emit number, no label

As a guide, the following entries are already answered.
COc1cccc(N2CCN(c3cc4oc(C)nc4cc3F)CC2)c1 :: 88
COc1ccc(N2CCN(c3cc4oc(C)nc4cc3F)CC2)cc1 :: 75
Cc1nc2cc(F)c(N3CCN(c4ccccc4F)CC3)cc2o1 :: 92
Cc1nc2cc(F)c(N3CCN(c4ccc(F)cc4)CC3)cc2o1 :: 87
O=[N+]([O-])c1cc(F)c(N2CCN(c3ccccc3O)CC2)cc1O :: 93
COc1ccc(N2CCN(c3cc(O)c([N+](=O)[O-])cc3F)CC2)cc1 :: 96
Cc1nc2cc(F)c(N3CCN(c4ccccc4)CC3)cc2o1 :: 90
O=[N+]([O-])c1cc(F)c(N2CCN(c3ccccc3)CC2)cc1O :: 64
Cc1ccc(N2CCN(c3cc4oc(C)nc4cc3F)CC2)cc1 :: 92
O=[N+]([O-])c1cc(F)c(N2CCN(c3ccc(O)cc3)CC2)cc1O :: 102

Pending compound:
[Q] Provide only the value of recorded viability at 10 µM for Cc1nc2cc(F)c(N3CCN(c4ccc(Cl)c(Cl)c4)CC3)cc2o1
[A] 81

---

The following compounds are shown together with reported viability at 24 h, 10 µM values.
# Experimental Details: CellTiter-Glo luminescent cell viability (cytotoxicity) assay on hepatocytes
# Format: cell-based, human
# Condition Summary: human; Liver cells, hepatocytes (HepaRG); 10 µM; 24 h; vs DMSO vehicle
Give your result in % as a bare value.

Cc1ccc(N2CCN(c3cc(O)c([N+](=O)[O-])cc3F)CC2)cc1 :: 120

[Q] Given the compound COc1cccc(N2CCN(c3cc4oc(C)nc4cc3F)CC2)c1 , write its reported viability at 24 h, 10 µM.
[A] 91

[Q] Recall and state the measured viability at 24 h, 10 µM for Cc1nc2cc(F)c(N3CCN(c4ccccc4O)CC3)cc2o1 .
[A] 86

---

# Experimental Details: CellTiter-Glo luminescent cell viability (cytotoxicity) assay on hepatocytes
# Type: cell-based, human
# Condition Summary: human; Liver cells, hepatocytes (HepaRG); 50 µM; 24 h; vs DMSO vehicle
Each entry below carries its recorded viability at 24 h, 50 µM.
The reply should be a number in %, with the unit left off.

Take a look at these entries with their results.
Cc1ccc(N2CCN(c3cc4oc(C)nc4cc3F)CC2)cc1 :: 63
COc1ccc(N2CCN(c3cc4oc(C)nc4cc3F)CC2)cc1 :: 71

Please look at the following compound next.
[Q] Fill in viability at 24 h, 50 µM for record O=[N+]([O-])c1cc(F)c(N2CCN(c3ccccc3F)CC2)cc1O
[A] 87

---

Entries and their measured viability at 24 h, 1 µM follow.
# Experimental Details: CellTiter-Glo luminescent cell viability (cytotoxicity) assay on hepatocytes
# Type: cell-based, human
# Condition Summary: human; Liver cells, hepatocytes (HepaRG); 1 µM; 24 h; vs DMSO vehicle
# Experimental: The cytotoxicity of prepared benzoxazoles (7a–j) and intermediates (6a–j and 9) were measured by applying the CellTiter-Glo® luminescent cell proliferation assay (G755A, Promega, Madison, WI, USA). This method permits the determination of viable cells numbers in the culture based on quantitation of the ATP present, which denotes the presence of metabolically active cells. […]
Answer with a number only, understood to be in %.

// known answers, use as guide
Cc1nc2cc(F)c(N3CCN(c4ccc(Cl)c(Cl)c4)CC3)cc2o1 [Compound 7j] :: 90
COc1cccc(N2CCN(c3cc(O)c([N+](=O)[O-])cc3F)CC2)c1 [Compound 6i] :: 95

[Q] Look up viability at 24 h, 1 µM of O=[N+]([O-])c1cc(F)c(N2CCN(c3ccccc3)CC2)cc1O [Compound 6a] and report it.
[A] 97

[Q] Read off the recorded viability at 24 h, 1 µM for Cc1ccc(N2CCN(c3cc(O)c([N+](=O)[O-])cc3F)CC2)cc1 [Compound 6b]
[A] 123

[Q] Identify measured viability at 24 h, 1 µM associated with COc1cccc(N2CCN(c3cc4oc(C)nc4cc3F)CC2)c1 [Compound 7i]
[A] 102
